target: Nonstructural protein 3 (Zika virus, UniProt A0A024AXB9); assay: Functional biochemical assay to identify treatments for viral infectious disease that targets Zika NS2B-NS3 protease. Utilizing a direct enzyme activity measurement method, reading the fluorescence intensity is used to characterize the relative potency of inhibitors as IC50.; design: species or system PRVABC59
Sequence (A0A024AXB9 whole entry): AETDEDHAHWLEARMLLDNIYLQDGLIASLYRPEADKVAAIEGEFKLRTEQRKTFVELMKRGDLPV
Item-by-item account of pIC50
Expect pIC50 as a plain number equal to -log10 of the molar concentration.

Solved cases below.
[[record]]
cpd_smiles = "O=C(NCC(F)F)[C@H](Nc1ccc2c(c1)CNC2)c1cc(Br)ccc1OCc1ccccn1"
tested_on = "Nonstructural protein 3 (Zika virus, UniProt A0A024AXB9)"
measurement_label = "pIC50"
value_observed = 6.82

[[record]]
cpd_smiles = "O=C(Nc1ccc2c(c1)CNC2)c1cc(F)cc(C2=CCCOC2)c1"
tested_on = "Nonstructural protein 3 (Zika virus, UniProt A0A024AXB9)"
measurement_label = "pIC50"
value_observed = 6.53

[[record]]
cpd_smiles = "N#Cc1ccc(C(=O)Nc2ccc3c(c2)CNC3)cc1Cl"
tested_on = "Nonstructural protein 3 (Zika virus, UniProt A0A024AXB9)"
measurement_label = "pIC50"
value_observed = 4.94

[[record]]
cpd_smiles = "O=C(Nc1ccc2c(c1)CNC2)c1cccc2c1[C@]1(CCN(C(=O)OCc3ccccc3)C1)C(=O)N2"
tested_on = "Nonstructural protein 3 (Zika virus, UniProt A0A024AXB9)"
measurement_label = "pIC50"
value_observed = 6.61


Next up:
The reported pIC50 of the compound N#C[C@H](Nc1cncc(-c2nn[nH]n2)c1)c1cc(Cl)cc(NC(=O)OCc2ccccc2)c1 was 4.28

====

Listed next: entries and their corresponding pIC50.
molecular target: Nonstructural protein 3 (Zika virus, UniProt A0A024AXB9); experiment: Functional biochemical assay to identify treatments for viral infectious disease that targets Zika NS2B-NS3 protease. Utilizing a direct enzyme activity measurement method, reading the fluorescence intensity is used to characterize the relative potency of inhibitors as IC50.; design: species or system PRVABC59
pIC50: −log10 of the molar value.

[[record]]
cpd_smiles = "NC(=O)c1ccc(N2CC[C@@H](CO)C2)cc1"
value_observed = "< 4.00"

[[record]]
cpd_smiles = "C=C1C[C@H](c2cccc(CN)c2)[C@@H](c2cc(Cl)cc(NC(=O)OCc3ccccc3)c2)C1"
value_observed = "< 4.60"

[[record]]
cpd_smiles = "O=C1Cc2c(cc(Br)cc2C(=O)Nc2ccc3c(c2)C(=O)OC3)N1"
value_observed = "< 4.60"

[[record]]
cpd_smiles = "CNC(=O)[C@H](Nc1cccc(C(=O)O)c1)c1cc(Cl)cc2[nH]ncc12"
value_observed = "< 4.00"


Kindly review the next compound as well.
Record summary for O=C(Nc1ccc2c(c1)CNC2)N1CCC[C@H](CC2CCC2)C1 : reported pIC50 = < 4.60

====

target: Nonstructural protein 3 (Zika virus, UniProt A0A024AXB9); test: Functional biochemical assay to identify treatments for viral infectious disease that targets Zika NS2B-NS3 protease. Utilizing a direct enzyme activity measurement method, reading the fluorescence intensity is used to characterize the relative potency of inhibitors as IC50.; parameters: species or system PRVABC59
pIC50: −log10 of the molar value.
measurement label: pIC50

For orientation, consider the following solved cases.
[[record]]
cpd_smiles = "O=C(O)c1cc(Cl)cc(Cl)c1S(=O)(=O)Nc1ccc(Oc2ccccc2Cl)cc1"
value_observed = "< 4.00"

[[record]]
cpd_smiles = "NCc1cccc(NC(=O)c2cncc(Cl)c2)c1"
value_observed = 4.31

[[record]]
cpd_smiles = "Cc1cc(CN)cc(NC(=O)c2cccc3c2CC(=O)N3)c1"
value_observed = 5.52

[[record]]
cpd_smiles = "CN1CC=C(c2ccc(S(=O)(=O)Nc3ccc(Cl)cc3C(=O)O)cc2)CC1"
value_observed = "< 4.00"

[[record]]
cpd_smiles = "CCN1C[C@H]2C[C@@H]1CN2c1nc2ccccc2n(CC)c1=O"
value_observed = "< 4.00"


pIC50 on Nonstructural protein 3 (Zika virus, UniProt A0A024AXB9) for CC(C)(C)OC(=O)NCc1cc(Cl)cc(C(=O)O)c1 is < 4.00

The measured pIC50 that N[C@H]1CCc2cc(-c3ccn(-c4ccccc4)n3)ccc2C1 showed for Nonstructural protein 3 (Zika virus, UniProt A0A024AXB9) is < 4.00

Observed pIC50 on Nonstructural protein 3 (Zika virus, UniProt A0A024AXB9), entry O=C(O)c1ccc(C2CCN(Cc3c[nH]c4ccccc34)CC2)cc1 , equals < 4.00
